Test Target: rat VR1 (Rattus norvegicus, UniProt O35433)
Construct: expressed in transfected cells
Sequence (O35433 whole entry): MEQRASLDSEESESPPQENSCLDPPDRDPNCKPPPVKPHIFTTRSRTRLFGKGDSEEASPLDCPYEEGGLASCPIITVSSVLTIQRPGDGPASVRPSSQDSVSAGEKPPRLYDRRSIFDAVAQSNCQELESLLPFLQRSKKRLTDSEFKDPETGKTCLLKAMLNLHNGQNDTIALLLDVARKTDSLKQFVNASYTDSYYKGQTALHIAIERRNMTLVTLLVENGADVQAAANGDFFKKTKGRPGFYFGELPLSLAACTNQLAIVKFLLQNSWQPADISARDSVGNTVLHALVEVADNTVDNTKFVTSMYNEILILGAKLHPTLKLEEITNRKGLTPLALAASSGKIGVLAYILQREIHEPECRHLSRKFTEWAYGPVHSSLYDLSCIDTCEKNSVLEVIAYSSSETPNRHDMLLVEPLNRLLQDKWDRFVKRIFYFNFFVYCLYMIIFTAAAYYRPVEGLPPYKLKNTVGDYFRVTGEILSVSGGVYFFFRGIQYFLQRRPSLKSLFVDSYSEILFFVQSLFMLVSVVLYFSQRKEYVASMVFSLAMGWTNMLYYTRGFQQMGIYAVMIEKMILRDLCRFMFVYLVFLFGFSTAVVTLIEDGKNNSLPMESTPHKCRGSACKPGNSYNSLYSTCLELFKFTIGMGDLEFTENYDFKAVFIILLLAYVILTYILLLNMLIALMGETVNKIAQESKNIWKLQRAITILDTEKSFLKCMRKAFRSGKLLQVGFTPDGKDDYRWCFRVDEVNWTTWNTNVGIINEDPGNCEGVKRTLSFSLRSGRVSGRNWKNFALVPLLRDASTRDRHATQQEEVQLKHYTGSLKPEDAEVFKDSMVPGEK
Experiment Notes: 45Ca2+-uptake assay in CHO/VR1 cells, antagonism of capsaicin-stimulated uptake
Assay type: cell-based
Test Context: 45Ca2+ uptake stimulated by 50 nM capsaicin
Protocol: Initial stocks were dissolved in DMSO. For the binding assays, compounds were diluted in with DPBS with Ca^2+ and Mg^2+ and 0.25 mg/mL bovine serum albumin. […] Molecules were characterized to determine whether they were full agonists, partial agonists, or antagonists. […] Plates were shaken slowly for 20 min; then 306 μL of cell lysate was transferred from each well into a scintillation vial and radioactivity was determined by scintillation counting. […]
Hi there, I'd appreciate the recorded Ki for every entry that follows.
Answers are plain numbers, in nM.

Past entries and their recorded results:
Compound | Test Target | Readout Value
CC(C(=O)NCc1ccc(C(F)(F)F)cc1)c1ccc(NS(C)(=O)=O)c(F)c1 (stereo not shown) | rat VR1 (Rattus norvegicus, UniProt O35433) | 274
CC(C(=O)NCC=C(c1ccc(F)cc1)c1ccc(F)cc1)c1ccc(NS(C)(=O)=O)c(F)c1 (stereo not shown) | rat VR1 (Rattus norvegicus, UniProt O35433) | 29.3
Cc1ccc(CC(CNC(=O)C(C)c2ccc(NS(C)(=O)=O)cc2)COC(=O)C(C)(C)C)cc1C (stereo not shown) | rat VR1 (Rattus norvegicus, UniProt O35433) | 38

Asked: Recorded Ki of CC(C(=O)NCc1cccc2ccccc12)c1ccc(NS(C)(=O)=O)c(F)c1 (stereo not shown) , please.
Given back: 239

* * *

Test Target: rat VR1 (Rattus norvegicus, UniProt O35433)
Construct: expressed in transfected cells
Experiment Notes: [3H]resiniferatoxin (RTX) competition binding assay, VR1-transfected CHO cells
Property: pKi
Numbers only, as −log10 of the molar value.

Compound | Test Target | pKi
C[C@H](NC(=S)NCc1ccc(C(C)(C)C)cc1)c1ccc(NS(C)(=O)=O)cc1 | rat VR1 (Rattus norvegicus, UniProt O35433) | 5.44
CC(C(=O)NCc1ccc(Cl)cc1)c1ccc(NS(C)(=O)=O)cc1 (stereo not drawn) | rat VR1 (Rattus norvegicus, UniProt O35433) | 5.46
C[C@@H](NC(=S)N[C@H](COC(=O)C(C)(C)C)Cc1ccccc1)c1ccc(NS(C)(=O)=O)cc1 | rat VR1 (Rattus norvegicus, UniProt O35433) | 6.57
Cc1ccc(C(=CCNC(=O)C(C)c2ccc(NS(C)(=O)=O)c(F)c2)c2ccc(C)cc2)cc1 (stereo not drawn) | rat VR1 (Rattus norvegicus, UniProt O35433) | 7.44

Please give pKi, item by item, for the list that follows.
1. C[C@@H](C(=O)NCc1ccc(C(C)(C)C)cc1)c1ccc(NS(C)(=O)=O)c(F)c1
2. Cc1ccc(CC(CNC(=S)NC(C)c2ccc(NS(C)(=O)=O)c(F)c2)COC(=O)C(C)(C)C)cc1C (stereo not drawn)
3. C[C@@H](NC(=S)NC[C@@H](COC(=O)C(C)(C)C)Cc1ccc(C(C)(C)C)cc1)c1ccc(NS(C)(=O)=O)cc1
4. COc1cc(C(C)(C)C(=O)NCCCc2ccc(C)c(C)c2)ccc1NS(C)(=O)=O
5. CC(C(=O)NCc1ccc(Cl)cc1)c1ccc(NS(C)(=O)=O)c(Br)c1 (stereo not drawn)

Given back:
6.34
7.43
8.09
6.08
6.27
